target: human histamine receptor type 3 (Homo sapiens, UniProt Q9Y5N1); assay: Effect on activity of histamine receptor type 3 (intracellular cAMP, CHO cells); settings: preincubation with histamine, read-out: IC50, antagonist of histamine receptor type 3
Sequence (Q9Y5N1 whole entry): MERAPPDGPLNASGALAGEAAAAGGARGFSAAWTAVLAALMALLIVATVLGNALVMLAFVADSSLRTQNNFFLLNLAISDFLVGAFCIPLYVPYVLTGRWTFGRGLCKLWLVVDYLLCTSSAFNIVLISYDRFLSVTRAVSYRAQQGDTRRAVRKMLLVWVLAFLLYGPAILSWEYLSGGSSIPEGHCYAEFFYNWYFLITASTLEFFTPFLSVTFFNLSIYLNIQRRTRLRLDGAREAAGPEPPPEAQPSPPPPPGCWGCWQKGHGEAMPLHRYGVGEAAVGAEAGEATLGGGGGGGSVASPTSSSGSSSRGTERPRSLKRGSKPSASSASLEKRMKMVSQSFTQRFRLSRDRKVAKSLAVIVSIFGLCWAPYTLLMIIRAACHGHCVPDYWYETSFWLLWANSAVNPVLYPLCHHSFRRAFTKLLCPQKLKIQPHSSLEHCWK
QUANTITY_MEASURED: pIC50
On this scale, pIC50 is minus log10 of a concentration expressed in M (mol/L).

*Q* Identify measured pIC50 corresponding to O=C(CC(=O)NCCc1cnc[nH]1)NCCc1cnc[nH]1
*A* 4.70

---

target: human histamine receptor type 4 (Homo sapiens)
Sequence (Q9H3N8 whole entry): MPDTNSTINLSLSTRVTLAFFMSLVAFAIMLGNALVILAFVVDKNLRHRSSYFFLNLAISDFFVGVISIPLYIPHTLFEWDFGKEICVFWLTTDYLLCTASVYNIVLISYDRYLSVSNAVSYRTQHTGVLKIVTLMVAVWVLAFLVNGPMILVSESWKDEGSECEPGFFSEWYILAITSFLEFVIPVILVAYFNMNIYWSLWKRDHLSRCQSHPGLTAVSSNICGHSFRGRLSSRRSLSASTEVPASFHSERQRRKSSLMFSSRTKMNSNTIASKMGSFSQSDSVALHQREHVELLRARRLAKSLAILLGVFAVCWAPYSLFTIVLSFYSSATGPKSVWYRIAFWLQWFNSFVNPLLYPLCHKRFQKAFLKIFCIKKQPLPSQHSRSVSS
QUANTITY_MEASURED: Ki (µM)
Write the value in µM as a bare number.

*Q* Please tell me the measured Ki for O=C(CC(=O)NCCc1cnc[nH]1)NCCc1cnc[nH]1 ; system: human histamine receptor type 4 (Homo sapiens).
*A* 16
